target: CYP2D6 (Homo sapiens); assay: Reversible inhibition of CYP2D6 in human liver microsomes using dextromethorphan as substrate at 10 uM incubated for 10 mins by LC/MS/MS analysis relative to control; type: ADME, Microsome; conditions: probe dextromethorphan
Sequence (P10635 whole entry): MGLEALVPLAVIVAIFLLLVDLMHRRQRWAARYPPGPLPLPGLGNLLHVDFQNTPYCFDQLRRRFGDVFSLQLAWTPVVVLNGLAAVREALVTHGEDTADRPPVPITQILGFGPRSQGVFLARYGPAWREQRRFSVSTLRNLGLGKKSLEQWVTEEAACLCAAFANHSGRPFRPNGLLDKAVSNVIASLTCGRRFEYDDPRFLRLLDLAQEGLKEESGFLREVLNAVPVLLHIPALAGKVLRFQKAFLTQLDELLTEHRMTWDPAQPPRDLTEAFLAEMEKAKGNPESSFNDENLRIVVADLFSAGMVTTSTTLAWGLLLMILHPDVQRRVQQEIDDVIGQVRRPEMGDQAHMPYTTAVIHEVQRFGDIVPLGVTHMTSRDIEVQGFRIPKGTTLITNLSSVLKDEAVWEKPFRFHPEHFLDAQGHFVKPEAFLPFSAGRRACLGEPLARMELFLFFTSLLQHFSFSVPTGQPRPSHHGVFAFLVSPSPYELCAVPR
measurement.kind: inhibition at 10 min, 10 µM

Challenge: Item under review: "Cn1nc(C(F)(F)F)cc1-c1cnc(N2CCc3cc(S(=O)(=O)Nc4c(F)cc(Cl)cc4F)cc(N4CCCC4=O)c32)nc1" . Reported inhibition at 10 min, 10 µM?
Response given: < 10%

---

assay: 1-Octanol/aqueous buffer partition coefficient, logD of the compound at pH 7.4 by HPLC analysis; format: physicochemical
Respond with fulfilled for logD values of 3 and above, not fulfilled for values below.

| compound | classification |
| --- | --- |
| O=C1CCCN1c1cc(S(=O)(=O)Nc2c(F)cc(Cl)cc2F)cc2c1N(c1ncc(-c3ccc(C(F)(F)F)cc3)cn1)CC2 | fulfilled |

Challenge: Form field: logD at least 3? Entry: "Cc1cc(C(F)(F)F)nn1-c1cnc(N2CCc3cc(S(=O)(=O)Nc4c(F)cc(Cl)cc4F)cc(N4CCCC4=O)c32)nc1"
Response given: not fulfilled

Challenge: What do you have for Cn1nc(C(F)(F)F)cc1-c1cnc(N2CCc3cc(S(=O)(=O)Nc4c(F)cc(Cl)cc4F)cc(N4CCCC4=O)c32)nc1 [TP-020] ?
Response given: not fulfilled

Challenge: Again, but for "O=C1CCCN1c1cc(S(=O)(=O)Nc2c(F)cc(Cl)cc2F)cc2c1N(C(=O)Nc1ccc(C(F)(F)F)cc1)CC2"
Response given: fulfilled

Challenge: Let us now turn to "Cn1nc(C(F)(F)F)cc1-c1cnc(N2CCc3cc(S(=O)(=O)Nc4c(F)cc(Cl)cc4F)cc(N4CCNC4=O)c32)nc1"
Response given: not fulfilled

Challenge: Repeat for the following compound: "O=C1CCCN1c1cc(S(=O)(=O)Nc2c(F)cc(F)cc2F)cc2c1N(C(=O)OC1CCN(CC(F)(F)C(F)(F)F)CC1)CC2"
Response given: fulfilled

Challenge: Also "O=C1CCCN1c1cc(S(=O)(=O)Nc2c(F)cc(Cl)cc2F)cc2c1N(C(=O)OC1CCN(CC(F)(F)C(F)(F)F)CC1)CC2" , if possible.
Response given: fulfilled

Challenge: Next record, please: "O=C1CCCN1c1cc(S(=O)(=O)Nc2ccc(F)cc2F)cc2c1N(C(=O)OC1CCN(CC(F)(F)C(F)(F)F)CC1)CC2"
Response given: fulfilled

Challenge: Try the compound "O=C1CCCN1c1cc(S(=O)(=O)Nc2c(F)cc(Cl)cc2F)cc2c1N(c1ccc(-c3ccc(C(F)(F)F)cc3)cc1)CC2"
Response given: fulfilled

Challenge: Same lookup for "O=C1CCCN1c1cc(S(=O)(=O)Nc2c(F)cc(Cl)cc2F)cc2c1N(c1ncc(-n3ccc(C(F)(F)F)n3)cn1)CC2" , please.
Response given: fulfilled

Challenge: Same for "O=C1CCCN1c1cc(S(=O)(=O)Nc2ccc(C(F)(F)F)cc2F)cc2c1N(C(=O)OC1CCN(CC(F)(F)C(F)(F)F)CC1)CC2"
Response given: fulfilled

Challenge: Then this compound: "O=C1CCCN1c1cc(S(=O)(=O)Nc2c(F)cc(Cl)cc2F)cc2c1N(c1ncc(-c3ccc(C(F)(F)F)cc3F)cn1)CC2"
Response given: fulfilled

Challenge: "O=C1CCCN1c1cc(S(=O)(=O)Nc2c(F)cc(Cl)cc2F)cc2c1N(c1ncc(-n3cc(C(F)(F)F)cn3)cn1)CC2" ?
Response given: fulfilled

---

target: CYP2C9 (Homo sapiens); experiment: Reversible inhibition of CYP2C9 in human liver microsomes using tolbutamide as substrate at 10 uM incubated for 10 mins by LC/MS/MS analysis relative to control; assay type: ADME, Microsome; conditions: probe tolbutamide
Sequence (P11712 whole entry): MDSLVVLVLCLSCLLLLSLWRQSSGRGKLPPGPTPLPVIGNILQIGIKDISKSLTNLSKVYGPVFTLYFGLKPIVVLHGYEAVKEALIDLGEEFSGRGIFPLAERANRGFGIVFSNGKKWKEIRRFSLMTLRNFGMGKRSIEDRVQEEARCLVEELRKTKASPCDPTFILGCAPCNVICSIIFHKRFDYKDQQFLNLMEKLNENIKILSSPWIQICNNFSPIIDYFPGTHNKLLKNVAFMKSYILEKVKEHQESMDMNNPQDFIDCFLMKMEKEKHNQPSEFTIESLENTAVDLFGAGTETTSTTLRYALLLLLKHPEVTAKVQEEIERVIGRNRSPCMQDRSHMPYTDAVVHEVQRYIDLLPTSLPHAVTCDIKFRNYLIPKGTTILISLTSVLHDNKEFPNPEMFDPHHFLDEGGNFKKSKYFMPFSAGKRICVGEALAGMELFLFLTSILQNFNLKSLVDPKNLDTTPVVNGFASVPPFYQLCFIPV
measurement.kind: inhibition at 10 min, 10 µM (%)
State just the number; it will be interpreted in %.

Challenge: Give its inhibition at 10 min, 10 µM value. Item: Cn1nc(C(F)(F)F)cc1-c1cnc(N2CCc3cc(S(=O)(=O)Nc4c(F)cc(Cl)cc4F)cc(N4CCCC4=O)c32)nc1 [TP-020]
Response given: 17

---

target: Diacylglycerol O-acyltransferase 1 (Homo sapiens); test: Inhibition of N-terminal FLAG-tagged full-length human DGAT1 expressed in recombinant baculovirus infected Sf21 cells using [1-14C]-oleoyl-CoA and 1,2-dioleoyl-glycerol as substrate incubated for 40 mins by TLC analysis
Sequence (O75907 whole entry): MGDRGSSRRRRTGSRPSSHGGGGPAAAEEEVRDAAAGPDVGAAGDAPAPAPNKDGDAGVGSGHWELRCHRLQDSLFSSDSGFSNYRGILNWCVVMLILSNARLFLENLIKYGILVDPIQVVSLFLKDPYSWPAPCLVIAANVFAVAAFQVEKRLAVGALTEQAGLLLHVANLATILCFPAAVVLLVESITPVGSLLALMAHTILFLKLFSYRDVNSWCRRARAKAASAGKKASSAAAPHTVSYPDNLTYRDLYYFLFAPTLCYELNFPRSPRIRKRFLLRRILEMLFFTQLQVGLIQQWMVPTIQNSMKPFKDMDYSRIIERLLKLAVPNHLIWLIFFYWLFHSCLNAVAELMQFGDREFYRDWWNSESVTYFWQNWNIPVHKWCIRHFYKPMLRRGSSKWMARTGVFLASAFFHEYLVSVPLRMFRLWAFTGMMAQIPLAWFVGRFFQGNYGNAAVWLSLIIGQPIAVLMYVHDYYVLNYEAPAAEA
measurement.kind: IC50

Challenge: GET /values?readout=IC50&item= Cn1nc(C(F)(F)F)cc1-c1cnc(N2CCc3cc(S(=O)(=O)Nc4c(F)cc(Cl)cc4F)cc(N4CCCC4=O)c32)nc1 [TP-020]
Response given: > 10 µM

---

Vd values by entry
experiment: Volume of distribution at steady state in mouse at 0.1 mg/kg, iv administered as cassette dose by LC/MS/MS analysis; type: ADME, organism-based; details: in vivo, read-out: Vdss

The cases that follow already have their Vd on record.
| compound | Vd |
| --- | --- |
| Cn1nc(C(F)(F)F)cc1-c1cnc(N2CCc3cc(S(=O)(=O)Nc4c(F)cc(Cl)cc4F)cc(N4CCCC4=O)c32)nc1 [TP-020] | 0.539 L/kg |
| Cn1nc(C(F)(F)F)cc1-c1cnc(N2CCc3cc(S(=O)(=O)Nc4c(F)cc(Cl)cc4F)cc(N4CCNC4=O)c32)nc1 | 1.96 L/kg |

Now for a further compound.
Challenge: # query: Vd of entry "Cc1cc(C(F)(F)F)nn1-c1cnc(N2CCc3cc(S(=O)(=O)Nc4c(F)cc(Cl)cc4F)cc(N4CCCC4=O)c32)nc1"
Response given: 1.02 L/kg

---

assay: Metabolic stability in mouse liver microsomes assessed as intrinsic clearance at 1 uM incubated for 15 to 30 mins in presence of NADPH-generating system by LC/MS/MS analysis; assay type: ADME, Microsome; conditions: time 15-30 min, read-out: CLH
Parameter: microsomal CLint at 1 µM. Scope: all listed entries.
Lab book: enter the figure in µL/min/mg, no units written.

| compound.smiles | value |
| --- | --- |
| Cn1nc(C(F)(F)F)cc1-c1cnc(N2CCc3cc(S(=O)(=O)Nc4c(F)cc(Cl)cc4F)cc(N4CCNC4=O)c32)nc1 | 33 |

Turning now to a further record.
Challenge: Item under review: "Cc1cc(C(F)(F)F)nn1-c1cnc(N2CCc3cc(S(=O)(=O)Nc4c(F)cc(Cl)cc4F)cc(N4CCCC4=O)c32)nc1" . Reported microsomal CLint at 1 µM?
Response given: 27
